Test system: SNB-75 CNS
experiment-notes: NCI tumour cell line growth inhibition, 48 h
measure: TGI

Report TGI for c1ccc(C2C3=C(Nc4ncnn42)c2ccccc2C3)cc1 (stereo not given) please.
> 100 µM

// returns reported TGI for input `C=C(CN1CCc2ccccc2C1)c1ccc(C(=O)Nc2cnccn2)cc1`
61.2 µM

Consider the compound `Cc1cc2c(cc1C)[n+](=O)c(C(=O)CC(=O)C(=O)Nc1c(C(C)C)cccc1C(C)C)c(C)n2[O-]` and give its measured TGI.
> 100 µM

Would you mind telling me what TGI value was observed for `CC(=O)Nc1ccccc1Sc1ccccc1` ?
> 100 µM

So what does the record say about TGI for COC(=O)C1=C(C(=O)OC)C2C=CC1C1C(Cl)=C(Cl)C21 (stereo not given) ?
> 100 µM

Report TGI for `COc1cccc(-c2cc(=O)c3cc(N(C)C)ccc3[nH]2)c1` please.
> 100 µM

Reported TGI, compound `O=C(CC(=O)n1nc(-c2ccccc2)c(N=Nc2ccccc2C(=O)O)c1-c1ccccc1)Nc1ccc(Cl)cc1` : ____
83.1 µM

I have this compound here, CC(O[Si](c1ccccc1)(c1ccccc1)C(C)(C)C)[C@H](NC(=O)OC(C)(C)C)C(=O)O[Si](c1ccccc1)(c1ccccc1)C(C)(C)C (stereo not given in full) , and I need its recorded TGI.
29 µM

// returns reported TGI for input `Cc1nc2c(nc1Cl)nc(Oc1ccc(Cl)cc1)c1ccccc12`
> 100 µM

I would be grateful if you could share the reported TGI for `CC1(C)CC(/C=C2/OC(=O)c3ccccc32)=C(C#N)C(=O)O1` .
> 100 µM

---

Kindly state TGI for each of the entries shown.
System: KM12 colon
experiment-notes: NCI tumour cell line growth inhibition, 48 h

Return TGI measured with KM12 colon given this compound: O=C1OCc2c1cc1ccc(O)c(OC3OC(CO)C(O)C(O)C3O)c1c2-c1ccc2c(c1)OCO2 (stereo unspecified)
> 100 µM

Checklist item: TGI tested on KM12 colon, entry `CC(C)=CCOC(=O)C(C)=[N+]=[N-]` , value?
> 100 µM

Can you look up TGI on KM12 colon for `Nc1cc(CO)cc(Nc2nc3ccc(Cl)cc3c3[nH]c4ccccc4c23)c1` ?
18.6 µM

API: value(readout= TGI, system= KM12 colon, query= CC1=C(C(=O)Nc2ccc3[nH]ncc3c2)C(c2ccc3ccccc3c2)CC(=O)N1 (stereo unspecified) )
> 25 µM

Notebook: pull reported TGI for KM12 colon, entry `O=C1C(Cl)=C(N2CCN(C3=C(Cl)C(=O)c4ccccc4C3=O)CC2)C(=O)c2ccccc21`
15.4 µM

State its TGI on KM12 colon: `COc1ccc2[nH]c(O)c(/C=c3/cc4c(c(-c5cc(OC)c(OC)c(OC)c5)n3)=Nc3ccccc3-4)c2c1`
> 100 µM

API: value(readout=TGI, system=KM12 colon) for record `COCCOCOc1ccc(OCc2ccccc2)cc1`
> 100 µM

Report TGI for c1ccc(C2C3=C(Nc4ncnn42)c2ccccc2C3)cc1 (stereo unspecified) tested on KM12 colon.
> 100 µM

Reported TGI for KM12 colon, given `COc1ccc2c(c1)c(-c1nc(-c3cn(C)c4ncccc34)cs1)cn2CCCN1CCCCC1` ?
3.45 µM

Param readout = TGI; param system = KM12 colon; param query = `Cc1nc(-c2ccc([N+](=O)[O-])cc2)cn2c1nc1ccccc12` ; response: value
> 100 µM

Kindly state the measured TGI obtained for C=C1CC(COc2cc(=O)oc3ccccc23)(c2ccccc2)OC1=O (stereo unspecified) with KM12 colon.
12.7 µM

Under KM12 colon: TGI value of CCOC(=O)NC(=O)c1cn(C2OC(COC(=O)CCCCCCCCC(=O)OCC3OC(n4cc(C(=O)NC(=O)OCC)c(=O)[nH]c4=O)C(O)C3O)C(O)C2O)c(=O)[nH]c1=O (stereo unspecified) ?
> 100 µM

Report TGI for COC(=O)CC(C(C(=O)OC)C(=O)OC)N1C(=O)OCC1c1ccccc1 (stereo unspecified) tested on KM12 colon.
> 100 µM

Lab request: please report TGI under test system KM12 colon for CN1C(=O)C2C(=O)N(Cc3ccccc3)CC(=O)N2c2cccnc21 (stereo unspecified)
> 100 µM

Hello, I am looking for reported TGI with KM12 colon for O=C(CI)NC1Oc2ccccc2-c2oc(=O)c(-c3ccccc3)cc21 (stereo unspecified) . Could you help?
3.46 µM

Please provide the recorded TGI for `O=C1CCC[C@@H]2NC[C@@H](c3ccc4c(c3)OCO4)[C@H]12` , tested on KM12 colon.
> 25 µM

Record lookup: for KM12 colon, what TGI belongs to OCc1ccc2[n+](c1)CCC1c3ccccc3NC21 (stereo unspecified) ?
> 300 µM

Report TGI for Nc1ccn(C2O[C@H](CO)[C@@H](O)[C@@H]2O)c(=O)n1 (stereo partly specified) tested on KM12 colon.
> 100 µM

Record `COC(=O)c1cc2c3ccccc3[nH]c2c2ncccc12` : what is its TGI with KM12 colon?
> 100 µM

Item `CCNCCNc1cc(-c2ccc(C(=O)OC)cc2)c(C#N)c2nc3ccccc3n12` with KM12 colon - TGI?
> 100 µM

Reported TGI for KM12 colon, given `Cc1ccc(S(=O)(=O)N(CCOc2ccc(/C(N)=N/Cl)cc2)CCOc2ccc(/C(N)=N\Cl)cc2)cc1` ?
28.1 µM

# returns recorded TGI (system: KM12 colon) for `CC(C)OP(=O)(OC(C)C)c1c(Nc2ccccc2)n[nH]c1N`
> 100 µM

Tell me reported TGI for CCCCCCCCCCCCCCCCCCNc1ccn(C2OC(COP(=O)(O)OCC3OC(n4ccc(NC(=O)CCCCCCCCCCCCCCCCC)nc4=O)C(OC(C)=O)C3OC(C)=O)C(OC(C)=O)C2OC(C)=O)c(=O)n1 (stereo unspecified) , tested with KM12 colon.
> 100 µM

Write down the reported TGI of COc1ccc(OC)c(NC(=O)C(=O)C(C(C)=O)c2nc3ccc(Cl)cc3[nH]c2=O)c1 (stereo unspecified) , test system: KM12 colon.
> 50 µM

Request - read-out TGI | tested on KM12 colon | compound O=C(O)CCCCC(CCSCc1ccccc1)SCc1ccccc1 (stereo unspecified)
> 100 µM

// lookup TGI | system=KM12 colon | key= `COC(=O)C(CCC#N)(CCC#N)C(=O)OC`
> 100 µM
